Hi there, I'd appreciate the recorded DC50 for every entry that follows.
# systemUnderTest: ERα protein (HiBiT-tagged) in ESR1_HiBiT KI MCF7 cells (Homo sapiens)
# Sequence (P03372 whole entry): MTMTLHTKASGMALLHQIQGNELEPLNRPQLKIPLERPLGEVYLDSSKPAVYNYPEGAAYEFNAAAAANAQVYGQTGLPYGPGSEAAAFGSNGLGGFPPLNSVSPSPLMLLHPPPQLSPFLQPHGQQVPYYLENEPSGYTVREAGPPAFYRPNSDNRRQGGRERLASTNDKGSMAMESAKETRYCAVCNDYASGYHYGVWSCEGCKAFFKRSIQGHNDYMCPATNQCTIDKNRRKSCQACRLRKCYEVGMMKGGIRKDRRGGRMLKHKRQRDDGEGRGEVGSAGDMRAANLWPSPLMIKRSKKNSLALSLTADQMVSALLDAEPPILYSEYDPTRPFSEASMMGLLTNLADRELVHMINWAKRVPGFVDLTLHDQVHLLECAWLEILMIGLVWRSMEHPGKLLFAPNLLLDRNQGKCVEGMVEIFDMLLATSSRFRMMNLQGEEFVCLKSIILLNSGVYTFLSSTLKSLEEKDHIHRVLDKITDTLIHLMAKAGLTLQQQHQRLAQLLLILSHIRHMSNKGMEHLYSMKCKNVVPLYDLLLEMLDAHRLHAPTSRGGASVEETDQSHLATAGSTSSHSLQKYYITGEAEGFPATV
# assayComment: Nano Glo HiBiT Lytic Degradation Assay
# Format: cell-based
# conditionContext: 6 hours with compound, 14-point dose response 1:3, bell-shape curve fit, half-maximal effect of first Hill model, read-out: MCF7 ESR1 HiBiT - (DC50)
The response must be a number in nM with no trailing unit.

## Input Consider the molecule shown here: Cc1cc([C@H]2OCc3cc(O)ccc3[C@H]2c2ccc(N3CCC(CN4CCN(c5ccc6c(c5)CN([C@H]5CCC(=O)NC5=O)C6=O)CC4)CC3)cc2)ccc1F What is its recorded DC50?
## Output 0.89

## Input Can you check O=C1CC[C@H](N2Cc3cc(N4C[C@H]5C[C@@H]4CN5CC4CCN(c5ccc([C@@H]6c7ccc(O)cc7CC[C@@H]6c6ccccc6)cc5)CC4)ccc3C2=O)C(=O)N1 (single isomer, unassigned) next?
## Output 2

## Input Can you check O=C1CC[C@H](N2Cc3cc(N4CCN(CC5CCN(c6ccc([C@H]7c8ccc(O)cc8CC[C@H]7c7ccc(C(F)(F)F)cc7)cc6)CC5)CC4)ccc3C2=O)C(=O)N1 (single isomer, unassigned) next?
## Output 2
